The reported measurements were obtained from patent US20210079109A1.

assay-target: T1, recombinant human CD63 extracellular loop 2 expressed with a C-terminal Myc-Myc-hexahistidine (human)
T1 construct: also called hCD63 EC loop 2-MMH; human CD63 EC loop 2-MMH
T1 sequence (chain, as listed by the source limits assumed): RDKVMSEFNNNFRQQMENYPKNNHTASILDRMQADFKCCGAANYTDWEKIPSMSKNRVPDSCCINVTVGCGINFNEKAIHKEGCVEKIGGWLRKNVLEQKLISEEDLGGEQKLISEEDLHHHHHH
test: SPR Biacore, mAb captured, 25C
observed-property: pKd
The quantity pKd is defined as the negative base-10 logarithm of the molar concentration.

What pKd value was documented for this binder, H2M12385N (antibody, V domains shown, also called H2bM12385N; H2bM12385) VH: QVQLVESGGGLVKPGGSLRLSCAASGFTFTDYFMNWIRQAPGKGLEWVSYISNSGAIKYQADSVKGRFTISRDNAKNSLYLQMNSLRADDTAVYYCVRDPRSYYGFDYWGQGTLVTVSS VL: DIQMTQSPSSLSASVGDRVTITCRASQSIRNFLNWYQQKPGKAPRLLIYAASSLQSGVPSRFSGGGSGTDFTLTISSLQPEDFATYYCQQSYSNPPITFGQGTRLEIK ?
7.99

What pKd value was documented for this binder, H2M12452N (antibody, V domains shown, also called H2aM12452N) VH: QVQLQEAGPGLVKPSETLSLTCIVSGGSISGFYWNWIRQPPGKGLEWIGYFLYSGTIDYNPSLKSRVTISVDTSKNQFFLKLSFVTAADTAVYYCVRMGLGANAFDIWGRGTMVTVSS VL: EIVLTQSPGTLSLSPGERATLSCRASQTVSRSFLAWYQQKPGQAPRLLIYGPSSRATGIPDRFSGSGSGTDFTLTISRLEPEDFAVYYCQQYGNSPWTFGQGTKVEIK ?
8.13

What pKd value was documented for this binder, H1M12362N (antibody, V domains shown) VH: QVQLVESGGGLVKPGGSLRLSCAASGFIFSDYYINWIRQAPGKGLEWVSYTSSSGSTTYYEDSVKGRFTMSRDNARNLVYLQMNSLRAEDTAAYYCVRDLRYNDGLDVWGQGTTVTVSS VL: DILLTQSPSSLSASVGDRVTITCRASQSIRTYLNWYQQKPGRAPKLLVYAASSLQSGVPSRFSGSGSGTDFTLTISSLQPEDFATYFCQQSYDNPPITFGQGTRLAIK ?
7.90

What pKd value was documented for this binder, H2M12454N (antibody, V domains shown, also called H2bM12454N) VH: QVQLVESGGGLVKPGGSLRLSCAVSGFTYTDYFMNWIRQAPGKGLEWVSYISNSGAIKYYADSVKGRFTISRDNAKNSLYLQMNGLRADDTAVYYCVRDPRSYYGFDYWGQGTLVTVSS VL: DIQMTQSPSSLSASVGDRVTITCRASQSISNFLNWYQQKPGKAPRLLIYGASNLQSGVPSRFSGGGSGTDFTLTISSLQPADFATYYCQQSFSNPPVTFGQGTRLEIN ?
8.31

What pKd value was documented for this binder, H2M12387N (antibody, V domains shown, also called H2aM12387N) VH: QVQLEESGGGVVKAGGSLRLSCAASGFTFSDYYMNWIRQAPGKGLEWVSYINNGGYTIYYADSVKGRFTMSRDNAKNSVYLQMNGLRAEDTAFYYCVRDPRSYYGFDYWGQGTLVIVSS VL: DIQMTQSPSSLSASVGDRVTITCRASQSISRFLHWYQQKPGKAPKLLIYGASSLQSGVPSRFSGSGSGTDFTLTISSLQPEDFATYYCQQSYSTPPITFGQGTRLEIK ?
9.00

What pKd value was documented for this binder, H1M12451N (antibody, V domains shown) VH: QVQLQESGPGLMKPSETLSLTCTVSGGSFSSYYWNWIRQSPGKGLEWIGYIRYSGDTNYKPSLKSRFTISIDTSKNLFSLRLKSVTAADTAVYYCARMGLGSDAFDIWGQGTMVTVSS VL: EIVLTQSPGTLSLSPGERATLSCRASQSVNNNYLAWYQQKPGQAPRLLIYGVFNRATNIPDRFSGSGSGTDFTLTISRLEPEDFAVYYCQQYGSSPWTFGQGTKVEIK ?
8.30

What pKd value was documented for this binder, H1M12388N (antibody, V domains shown) VH: QVQLEESGGGVVKAGGSLRLSCAASGFTFSDYYINWIRQAPGKGLEWVSYINNGGYTIYYADSVKGRFTMSRDNAKNSVYLQMNGLRAEDTAFYYCVRDPRSYYGFDYWGQGTLVTVSS VL: DIQMTQSPSSLSASVGDRVTITCRASQSISRFLHWYQQKPGKAPKLLIYGASSLQSGVPSRFSGSGSGTDFTLTISTLQPEDFATYYCQQSYSTPPITFGQGTRLEIK ?
9.14

What pKd value was documented for this binder, H2M12450N (antibody, V domains shown, also called H2aM12450N; mAb12450) VH: QVQLQESGPKVVKPSETLSLTCTVSGGSISSYYWNWIRQSPGKGLEWIGYTKRGYTDYNPSLRSRVTISEDTSKNQFSLRISSVTAADTAVYYCAQMGWGSHAFDMWGQGTMVAVSS VL: EIVLTQSPGTLSLSPGERATLSCRASQSVNSRYLAWYQQKPGQAPRLLIYGASSRATGIPDRCSGSGSGTDFTLTISRLEPEDFAVYYCQQYGSSPWTFGQGTKVEIK ?
8.91
